Test: Bioavailability assay in Cynomolgus monkeys
Type: in vivo, Cynomolgus monkey
Details: cynomolgus monkey, blood, po, 10 mg/kg, PO Monkey 1, dose 29.04 mg (10 mg/kg)

{"COMPOUND": "CC1(O)[C@@H](O)[C@@H](CO)O[C@H]1n1cnc2c(=O)[nH]c(N)nc21 (stereo partly drawn) [β-D-2′-CH3-riboG]", "AUC / ng·h/mL": 758}

----------
Assay: Bioavailability assay in Cynomolgus monkeys
Type: in vivo, Cynomolgus monkey
Settings: cynomolgus monkey, blood, po, 10 mg/kg, PO Monkey 2, dose 30.93 mg (10 mg/kg)

{"MOLECULE": "CC1(O)[C@@H](O)[C@@H](CO)O[C@H]1n1cnc2c(=O)[nH]c(N)nc21 (stereo partly shown)", "AUC, ng·h/mL": 898}
